Data origin: ChEMBL document CHEMBL5725500

- target.under.test: Free fatty acid receptor 4 (Homo sapiens)
- Sequence (Q5NUL3 whole entry): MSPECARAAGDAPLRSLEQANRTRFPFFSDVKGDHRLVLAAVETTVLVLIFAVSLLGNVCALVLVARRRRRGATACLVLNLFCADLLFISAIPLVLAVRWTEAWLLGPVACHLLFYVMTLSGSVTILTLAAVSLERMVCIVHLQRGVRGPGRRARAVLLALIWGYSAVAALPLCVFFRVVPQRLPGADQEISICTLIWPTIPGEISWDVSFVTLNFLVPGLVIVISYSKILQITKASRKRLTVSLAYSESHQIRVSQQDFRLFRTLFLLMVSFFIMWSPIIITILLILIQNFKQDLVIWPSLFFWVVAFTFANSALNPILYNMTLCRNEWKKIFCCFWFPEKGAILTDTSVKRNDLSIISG
- protocol.notes: FLIPR Assay: On the day before the measurement day, CHO cells expressing human GPR120 were plated at 10000 cells per well in a 384-well black plate (#3702, Corning) and incubated overnight in a CO2 incubator. On the day of the measurement, 4 μM Fluo-4 AM (fluorescence calcium indicator reagent) was incubated to be introduced into the human GPR120 expression CHO cells in the presence of 0.08% Pluronic F-127 in a CO2 incubator for 90 minutes. To the cells was added the test compound diluted with HBSS solution containing 20 mM HEPES and 2.5 mM probenecid. Variations in the intracellular calcium concentration were measured by Fluorescence Imaging Plate Reader (FLIPR; Molecular Devices) to examine the agonist action, and EC50 values were calculated.
- Assay type: cell-based
measured.quantity: EC50 (nM)

# example entries with known answers
[
  {
    "compound": "O=C(O)C[C@@H]1CCC2(CCN(c3cc(OC4CCC4)ccc3F)CC2)OC1",
    "unit.spec": "nM",
    "EC50": 3240
  },
  {
    "compound": "OCCC1CCC2(CC1)CCN(c1cc(OC(F)(F)F)ccc1Cl)CC2",
    "unit.spec": "nM",
    "EC50": 472
  },
  {
    "compound": "Cc1cccc(Oc2ccc(C#N)c(N3CCC4(CCC(CC(=O)O)CC4)CC3)c2)n1",
    "unit.spec": "nM",
    "EC50": 4220
  },
  {
    "compound": "O=C(O)C[C@H]1CCC2(CCN(c3cc(OC4CCC4)ccc3Cl)CC2)OC1",
    "unit.spec": "nM",
    "EC50": 1650
  },
  {
    "compound": "Cc1ccnc(Oc2ccc(C#N)c(N3CCC4(CCC(CC(=O)O)CC4)CC3)c2)c1",
    "unit.spec": "nM",
    "EC50": 4970
  }
]

(I) O=C(O)CC1CCC2(CCN(c3cc(OC(F)(F)F)ccc3F)CC2)OC1 (configuration not stated)
(II) COc1cc(F)cc(N2CCC3(CC2)CC(CC(=O)O)CO3)c1 (configuration not stated)
In: Looking at recorded values for EC50, does I or II come in lower? Mark your selection by writing its label.
Out: I
(I: 1210 nM, II: 2380 nM)
